# Test system: A375 (skin) cancer cell lines
# EXPERIMENT_SUMMARY: AlamarBlue cytotoxicity assay, A375
# Format: cell-based
# TEST_CONTEXT: ratio IC50 MRC5 / IC50 A375
Label scheme for Selectivity index (SI) A375: lower than 2 is NO, 2 and above is YES.

COMPOUND	GROUP
O=C(O)C(Cc1ccccc1)/N=C/c1ccccc1OCc1cn(-c2ccccc2)nn1 (centres unmarked) [Compound 6]	YES
O=C([O-])[C@H](Cc1c[nH]c2ccccc12)/N=C/c1ccccc1OCc1cn(-c2ccccc2)nn1.[Na+] [Compound 3]	YES
O=C([O-])[C@H](Cc1ccc([O-])cc1)/N=C/c1ccccc1OCc1cn(-c2ccccc2)nn1.[Na+].[Na+] [Compound 4]	YES

Has O=C(O)CCC(/N=C/c1ccccc1OCc1cn(-c2ccccc2)nn1)C(=O)O (stereo in doubt) [Compound 2] a recorded Selectivity index (SI) A375 greater than or equal to 2?
YES

Another: O=Cc1ccccc1OCc1cn(-c2ccccc2)nn1 [Compound 1]
NO
